test: electrometric titration; type: physicochemical; settings: 66% dimethylformamide in water, pH 4.03, 66% dimethylformamide in water; initial pH 4.03; read-out: pKa (first titratable group)
outcomeMeasure: pKa

Query string: For the molecule CC(=O)c1c(C)cc(O)c2c(O)c3c(O)cccc3c(-c3c4c(c(O)c5c(O)cccc35)C(=O)CC(C)(O)C4C(C)=O)c12 (stereo not shown) , what pKa is on record?
Result string: ~6.68

---

assay: electrometric titration; assay type: physicochemical; conditions: 66% dimethylformamide in water, pH 4.81, 66% dimethylformamide in water; initial pH 4.81; read-out: pKa (first titratable group)
outcomeMeasure: pKa

Query string: I am curious: what pKa value has been reported for CC(=O)C1c2c(c(O)c3c(O)cccc3c2-c2c3c(c(O)c4c(O)cccc24)C(=O)CC(C)(O)C3C(C)=O)C(=O)CC1(C)O (stereo not shown) ?
Result string: ~6.75

src = patent US4452741A
